Quick reference for cell viability among some molecules
System: MOLM-13
assay_method_text: cell viability (% survival relative to DMSO control, bortezomib = 0%); higher = less cytotoxic
conditions_used: 10000 nM; 72 h
Unit % implied. Number only.

Would you please look over these solved cases?
Query (molecule): C1CCc2nnc(C34CC5CC(CC(C5)C3)C4)n2CC1 [MERCK-544] ; field requested: cell viability 118

And NC(=O)c1ncn([C@@H]2O[C@H](CO)[C@@H](O)[C@H]2O)n1 [Ribavirin] ? 62.9

Continuing:
Need cell viability, item c1ccc2c(c1)OCC(=C1NCCN1)O2 [Idazoxan] 102

Same thing, different molecule: COc1cc2c(NC3CCN(C)CC3)nc(N3CCCN(C)CC3)nc2cc1OCCCN(C)C [UNC0224] 71.1
